test system: intestinal alkaline phosphatase [Mus musculus]; experiment: mouse intestinal phosphatase enzyme activation – biochemical, luminescence, uHTS, primary screen (AID 2805); conditions: muIAP, CDP-Star luminescence, 30 min, at 10 µM, stronger effect = higher value
Screen size: about 330,000 compounds; about 780 (0.24%) were called active. This excerpt belongs to a sample that is enriched for actives.
Field: activation factor. Provide a value for each of the compounds that follow.

State the recorded activation factor for every item in the following list.
1. O=C1NC(=O)C(C/C=C/c2ccccc2)C(=O)N1
2. Cc1cc(C)cc(NC(=S)NC2CC3CCCC(C2)N3Cc2cccs2)c1 (stereo not given)
3. N#CC1=C(N)Oc2c(c(=O)oc3ccccc23)C1c1ccccc1OC(=O)c1cccs1 (stereo not given)
4. C=CCn1c(O)c(/C=N/N2CCOCC2)c(=O)[nH]c1=S

Response line:
1: 0.991 (inactive); 2: 5.54 (active); 3: 0.989 (inactive); 4: 1.03 (inactive)
